method description: AUC in Sprague-Dawley rat at 2 mg/kg, iv
Assay type: ADME, organism-based
condition details: in vivo
quantity kind: AUC (µM·h)

> print(dat)
                            chemical.smiles  readout.number
1  COc1ccc(-c2cc3c(N[C@@H]4CC[C@](C)(N)C4(C)C)c(C(N)=O)cnn3c2)cn1             5.8

----------
# Lookup of reported Papp A→B keyed by entry
method description: Permeability from apical side to basolateral side in human Caco2 cells
Format: ADME, cell-based
condition details: Caco-2, read-out: permeability
quantity kind: Papp A→B (×10⁻⁶ cm/s)

> print(dat)
                            chemical.smiles  value.modifier  readout.number
1  COc1ccc(-c2cc3c(N[C@@H]4CC[C@](C)(N)C4(C)C)c(C(N)=O)cnn3c2)cn1               =             2.6
2  CC1(C)[C@H](Nc2c(C(N)=O)cnn3cc(-c4ccc(F)nc4)cc23)CC[C@]1(C)N               <             1.5
3  CC1(C)[C@H](Nc2c(C(N)=O)cnn3cc(-c4ccncc4F)cc23)CC[C@]1(C)N               =             2.3
4  CC1(C)[C@H](Nc2c(C(N)=O)cnn3cc(-c4cc[nH]n4)cc23)CC[C@]1(C)N               =             6.5
5  CC1(C)[C@H](Nc2c(C(N)=O)cnn3cc(-c4ccncc4)cc23)CC[C@]1(C)N               <             1.5

----------
assay target: Cytochrome P450 3A4 (Homo sapiens)
Sequence (P08684 whole entry): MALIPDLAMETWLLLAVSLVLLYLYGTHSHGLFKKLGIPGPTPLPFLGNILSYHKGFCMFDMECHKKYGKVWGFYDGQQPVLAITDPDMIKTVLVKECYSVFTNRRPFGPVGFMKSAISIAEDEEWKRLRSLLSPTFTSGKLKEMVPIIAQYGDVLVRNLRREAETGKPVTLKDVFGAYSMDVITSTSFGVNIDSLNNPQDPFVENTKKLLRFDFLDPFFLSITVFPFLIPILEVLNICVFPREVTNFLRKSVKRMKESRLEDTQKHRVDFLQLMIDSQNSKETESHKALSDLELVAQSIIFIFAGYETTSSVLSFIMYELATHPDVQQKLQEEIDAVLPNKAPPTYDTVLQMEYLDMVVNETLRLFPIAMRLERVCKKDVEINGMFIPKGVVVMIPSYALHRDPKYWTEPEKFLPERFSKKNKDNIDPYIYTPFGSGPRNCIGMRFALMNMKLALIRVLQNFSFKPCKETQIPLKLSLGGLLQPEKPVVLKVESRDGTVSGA
quantity kind: IC50

> print(dat)
                            chemical.smiles                        assay.target  result
1  COc1ccc(-c2cc3c(N[C@@H]4CC[C@](C)(N)C4(C)C)c(C(N)=O)cnn3c2)cn1  Cytochrome P450 3A4 (Homo sapiens)   11 µM

----------
assay target: JAK3/JAK1 (Homo sapiens, UniProt P23458+P52333)
Sequence (P52333 whole entry): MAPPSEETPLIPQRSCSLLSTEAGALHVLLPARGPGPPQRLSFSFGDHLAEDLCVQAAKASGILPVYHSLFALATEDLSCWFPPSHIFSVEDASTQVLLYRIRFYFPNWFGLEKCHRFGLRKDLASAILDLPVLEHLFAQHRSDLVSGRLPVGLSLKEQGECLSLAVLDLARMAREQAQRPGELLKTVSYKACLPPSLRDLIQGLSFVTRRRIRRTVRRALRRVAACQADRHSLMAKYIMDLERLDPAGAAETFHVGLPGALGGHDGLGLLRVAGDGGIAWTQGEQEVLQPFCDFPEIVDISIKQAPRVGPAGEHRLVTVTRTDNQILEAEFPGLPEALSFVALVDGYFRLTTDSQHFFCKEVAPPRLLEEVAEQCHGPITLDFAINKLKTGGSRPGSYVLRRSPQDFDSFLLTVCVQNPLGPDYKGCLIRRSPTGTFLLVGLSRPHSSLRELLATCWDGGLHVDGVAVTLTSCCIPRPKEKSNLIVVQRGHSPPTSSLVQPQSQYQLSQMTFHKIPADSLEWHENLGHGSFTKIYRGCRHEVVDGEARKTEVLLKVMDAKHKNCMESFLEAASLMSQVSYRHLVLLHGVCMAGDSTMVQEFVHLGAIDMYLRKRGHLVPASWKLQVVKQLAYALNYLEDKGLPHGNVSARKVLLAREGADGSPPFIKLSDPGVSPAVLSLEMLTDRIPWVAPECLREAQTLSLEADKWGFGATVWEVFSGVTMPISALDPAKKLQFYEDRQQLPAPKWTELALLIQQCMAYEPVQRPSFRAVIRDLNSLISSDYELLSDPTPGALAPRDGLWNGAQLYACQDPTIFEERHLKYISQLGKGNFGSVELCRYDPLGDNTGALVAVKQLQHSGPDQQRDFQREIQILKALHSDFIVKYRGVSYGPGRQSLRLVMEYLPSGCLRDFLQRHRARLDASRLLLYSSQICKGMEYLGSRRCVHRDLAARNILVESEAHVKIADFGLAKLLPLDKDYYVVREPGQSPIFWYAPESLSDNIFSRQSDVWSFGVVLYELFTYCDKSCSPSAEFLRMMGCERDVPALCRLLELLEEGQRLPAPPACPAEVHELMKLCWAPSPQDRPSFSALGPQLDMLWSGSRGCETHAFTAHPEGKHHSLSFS
Sequence (P23458 whole entry): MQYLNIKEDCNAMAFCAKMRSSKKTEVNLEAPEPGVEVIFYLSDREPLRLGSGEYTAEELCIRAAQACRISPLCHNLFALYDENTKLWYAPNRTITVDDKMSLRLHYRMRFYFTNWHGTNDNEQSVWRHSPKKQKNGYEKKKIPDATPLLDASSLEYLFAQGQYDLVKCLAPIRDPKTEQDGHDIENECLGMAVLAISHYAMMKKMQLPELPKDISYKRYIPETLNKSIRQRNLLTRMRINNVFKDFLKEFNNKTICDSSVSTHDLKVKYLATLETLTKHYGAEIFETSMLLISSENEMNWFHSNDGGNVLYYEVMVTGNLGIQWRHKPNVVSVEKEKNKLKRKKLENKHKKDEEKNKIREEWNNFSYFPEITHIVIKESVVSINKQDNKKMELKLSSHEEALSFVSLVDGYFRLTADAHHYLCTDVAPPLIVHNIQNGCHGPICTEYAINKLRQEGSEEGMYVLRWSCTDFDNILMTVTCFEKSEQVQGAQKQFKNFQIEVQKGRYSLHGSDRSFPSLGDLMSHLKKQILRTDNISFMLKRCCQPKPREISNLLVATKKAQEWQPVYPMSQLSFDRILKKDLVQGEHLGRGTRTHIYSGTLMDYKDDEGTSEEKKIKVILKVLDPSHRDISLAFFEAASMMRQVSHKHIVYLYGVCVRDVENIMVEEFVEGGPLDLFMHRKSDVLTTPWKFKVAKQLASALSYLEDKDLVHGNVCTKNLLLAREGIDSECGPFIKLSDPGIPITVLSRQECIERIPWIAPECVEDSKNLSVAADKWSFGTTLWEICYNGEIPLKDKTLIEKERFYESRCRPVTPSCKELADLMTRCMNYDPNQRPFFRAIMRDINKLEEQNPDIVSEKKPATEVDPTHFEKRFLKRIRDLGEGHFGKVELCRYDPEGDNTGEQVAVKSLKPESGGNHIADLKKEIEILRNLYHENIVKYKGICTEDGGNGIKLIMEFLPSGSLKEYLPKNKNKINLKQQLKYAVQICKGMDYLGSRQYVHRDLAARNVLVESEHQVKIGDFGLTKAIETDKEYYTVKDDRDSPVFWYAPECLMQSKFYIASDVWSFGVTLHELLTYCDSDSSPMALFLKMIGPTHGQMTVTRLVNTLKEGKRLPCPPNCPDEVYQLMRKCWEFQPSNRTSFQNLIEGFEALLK
method description: Inhibition of JAK1/JAK3 in human whole blood assessed as reduction in IL-2 induced IFN-gamma production after 18 hrs by ELISA
pIC50: −log10 of the molar value.
quantity kind: pIC50

> print(dat)
                            chemical.smiles  quantity.kind  value.modifier  readout.number
1  Cc1ccc(-c2cc3c(N[C@@H]4CC[C@](C)(N)C4(C)C)c(C(N)=O)cnn3c2)cn1          pIC50               =            7.08
2  CC1(C)[C@H](Nc2c(C(N)=O)cnn3cc(-c4cccnc4)cc23)CC[C@]1(C)N          pIC50               =            6.96
3  CC1(C)[C@H](Nc2c(C(N)=O)cnn3cc(-c4cccc(F)c4)cc23)CC[C@]1(C)N          pIC50               <            6.00
4  Cc1ccccc1-c1cc2c(N[C@@H]3CC[C@](C)(N)C3(C)C)c(C(N)=O)cnn2c1          pIC50               =            6.31
5  COc1ccc(-c2cc3c(N[C@@H]4CC[C@](C)(N)C4(C)C)c(C(N)=O)cnn3c2)cn1          pIC50               =            7.00
6  COc1cc(-c2cc3c(N[C@@H]4CC[C@](C)(N)C4(C)C)c(C(N)=O)cnn3c2)ccn1          pIC50               =            6.46
7  COc1cccc(-c2cc3c(N[C@@H]4CC[C@](C)(N)C4(C)C)c(C(N)=O)cnn3c2)c1          pIC50               =            6.70
8  Cc1cnccc1-c1cc2c(N[C@@H]3CC[C@](C)(N)C3(C)C)c(C(N)=O)cnn2c1          pIC50               =            7.12
9  CC(C)Oc1ccc(-c2cc3c(N[C@@H]4CC[C@](C)(N)C4(C)C)c(C(N)=O)cnn3c2)cn1          pIC50               =            6.40
